Recorded inhibition at 0.1 µM by entry
study.system: rat adrenergic α1B receptor (Rattus norvegicus, UniProt P15823)
Construct: rat adrenergic α1B receptor obtained from Wistar Rat liver; from tissue; host or cells: Wistar rat liver
Sequence (P15823 1-515): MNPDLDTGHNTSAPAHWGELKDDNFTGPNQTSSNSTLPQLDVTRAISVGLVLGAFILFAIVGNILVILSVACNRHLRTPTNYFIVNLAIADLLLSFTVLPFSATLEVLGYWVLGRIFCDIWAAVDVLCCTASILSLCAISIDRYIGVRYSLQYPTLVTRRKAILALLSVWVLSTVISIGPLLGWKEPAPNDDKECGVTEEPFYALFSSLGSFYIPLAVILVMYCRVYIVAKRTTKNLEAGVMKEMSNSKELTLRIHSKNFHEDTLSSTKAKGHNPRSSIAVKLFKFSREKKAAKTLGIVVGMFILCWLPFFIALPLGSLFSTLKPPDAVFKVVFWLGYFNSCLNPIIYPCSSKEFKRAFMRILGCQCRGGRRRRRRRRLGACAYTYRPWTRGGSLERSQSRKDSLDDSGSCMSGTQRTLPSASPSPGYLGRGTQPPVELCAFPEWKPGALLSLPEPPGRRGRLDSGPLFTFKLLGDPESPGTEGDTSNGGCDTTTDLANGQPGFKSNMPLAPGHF
measurement.protocol: Radioligand binding, adrenergic α1B ([3H]Prazosin)
run.conditions: 0.1 μM compound; read-out: Percentage inhibition of ligand binding, Adrenergic α1B

| compound | study.system | inhibition at 0.1 µM |
| --- | --- | --- |
| Cc1ccc(CCn2c3c(c4cc(Cl)c(Cl)cc42)CN(C)CC3)cn1 | rat adrenergic α1B receptor (Rattus norvegicus, UniProt P15823) | 59% |
| Cc1cc(Br)c2c(c1)c1c(n2CCc2ccc(C)nc2)CCN(C)C1 | rat adrenergic α1B receptor (Rattus norvegicus, UniProt P15823) | 16% |
| Cc1ccc(C(C)(O)Cn2c3c(c4cc(Cl)ccc42)CN(C)CC3)cc1 (stereo not drawn) | rat adrenergic α1B receptor (Rattus norvegicus, UniProt P15823) | 54% |

Now consider the entry below.
Any idea what its inhibition at 0.1 µM is? The compound is Cc1ccc2c(c1)c1c(n2CC(C)(O)c2cccnc2)CC[N+](C)([O-])C1 (stereo not drawn)
5%

----------
study.system: rat adrenergic α1B receptor (Rattus norvegicus)
Construct: rat adrenergic α1B receptor obtained from Wistar Rat liver; from tissue; host or cells: Wistar rat liver
measurement.protocol: Radioligand binding, adrenergic α1B ([3H]Prazosin)
run.conditions: 0.1 μM compound; read-out: Percentage inhibition of ligand binding, Adrenergic α1B
Recorded inhibition at 0.1 µM by entry
Could you give me the number in %? Just the number is fine.

Any idea what its inhibition at 0.1 µM is? The compound is Cc1ccc2c(c1)c1c(n2CC(C)(O)c2ccc(O)nc2)CCN(C)C1 (centres unmarked)
4

Any idea what its inhibition at 0.1 µM is? The compound is `C/C(=C\n1c2c(c3cc(C)ccc31)CN(C)CC2)c1ccc2cnccc2c1`
87

Any idea what its inhibition at 0.1 µM is? The compound is `CCCc1ccc(/C(C)=C/n2c3c(c4cc(C)ccc42)CN(C)CC3)cn1`
68

Any idea what its inhibition at 0.1 µM is? The compound is `Cc1ccc2c(c1)c1c(n2C2=C(c3ccnn3C)CCC2)CCN(C)C1`
23

Any idea what its inhibition at 0.1 µM is? The compound is `C/C(=C\n1c2c(c3cc(C)ccc31)CN(C)CC2)c1ccc(C(F)(F)F)nc1`
53

----------
study.system: human recombinant adrenergic α1D receptor (Homo sapiens, UniProt P25100)
Construct: expressed in transfected cells; host or cells: HEK-293
Sequence (P25100 1-572): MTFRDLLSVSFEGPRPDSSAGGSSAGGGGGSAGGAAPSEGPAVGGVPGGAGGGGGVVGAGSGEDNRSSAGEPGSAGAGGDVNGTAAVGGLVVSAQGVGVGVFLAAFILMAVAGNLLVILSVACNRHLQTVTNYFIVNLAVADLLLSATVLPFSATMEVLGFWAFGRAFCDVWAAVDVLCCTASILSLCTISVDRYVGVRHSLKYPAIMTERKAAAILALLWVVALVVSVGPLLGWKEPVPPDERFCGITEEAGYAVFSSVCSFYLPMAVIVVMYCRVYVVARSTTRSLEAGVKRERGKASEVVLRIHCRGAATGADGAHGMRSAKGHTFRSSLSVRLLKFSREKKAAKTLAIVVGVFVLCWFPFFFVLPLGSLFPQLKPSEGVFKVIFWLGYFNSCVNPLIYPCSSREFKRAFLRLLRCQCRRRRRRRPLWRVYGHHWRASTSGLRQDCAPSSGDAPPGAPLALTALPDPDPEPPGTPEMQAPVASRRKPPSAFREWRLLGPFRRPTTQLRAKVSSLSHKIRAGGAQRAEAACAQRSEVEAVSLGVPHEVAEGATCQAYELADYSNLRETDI
measurement.protocol: Radioligand binding, adrenergic α1D ([3H]Prazosin)
run.conditions: read-out: Percentage inhibition of ligand binding, Adrenergic α1D (0.1 μM), compound at 0.1 μM; [3H]Prazosin; repeat datapoints each shown
reported.property: inhibition at 0.1 µM (%)
Could you give me the number in %? Just the number is fine.

Study these solved cases before continuing.
| compound | reported.property | value.reported |
| --- | --- | --- |
| COc1ccc(/C(C)=C/n2c3c(c4cc(Cl)ccc42)CCN(C)CC3)cc1F | inhibition at 0.1 µM | 44 |
| C/C(=C\n1c2c(c3cc(C)ccc31)CCN(C)CC2)c1ccncn1 | inhibition at 0.1 µM | 45 |
| C/C(=C\n1c2c(c3cc(C)ccc31)CN(C)CC2)c1c(C)noc1C | inhibition at 0.1 µM | 35 |
| CC(=O)Nc1ccc(/C(C)=C/n2c3c(c4cc(C)ccc42)CN(C)CC3)cn1 | inhibition at 0.1 µM | 40 |

Any idea what its inhibition at 0.1 µM is? The compound is Cc1ccc(CCn2c3c(c4cccnc42)CN2CCCC2C3)cn1 (centres unmarked)
-1

----------
study.system: rat adrenergic α1B receptor (Rattus norvegicus, UniProt P15823)
Construct: rat adrenergic α1B receptor obtained from Wistar Rat liver; from tissue; host or cells: Wistar rat liver
Sequence (P15823 1-515): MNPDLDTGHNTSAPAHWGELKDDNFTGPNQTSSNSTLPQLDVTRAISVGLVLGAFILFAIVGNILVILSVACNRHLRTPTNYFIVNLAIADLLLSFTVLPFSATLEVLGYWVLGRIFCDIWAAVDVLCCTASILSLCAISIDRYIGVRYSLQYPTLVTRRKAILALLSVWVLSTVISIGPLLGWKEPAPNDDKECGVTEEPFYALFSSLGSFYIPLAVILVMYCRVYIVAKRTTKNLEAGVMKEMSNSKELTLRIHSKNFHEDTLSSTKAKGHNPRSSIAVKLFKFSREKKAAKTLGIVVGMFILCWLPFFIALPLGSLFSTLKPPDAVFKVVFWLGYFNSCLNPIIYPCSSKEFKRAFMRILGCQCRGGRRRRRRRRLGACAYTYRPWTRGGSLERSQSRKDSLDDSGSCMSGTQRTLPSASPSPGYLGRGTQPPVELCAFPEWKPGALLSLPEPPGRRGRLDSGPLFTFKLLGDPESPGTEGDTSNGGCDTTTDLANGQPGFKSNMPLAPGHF
measurement.protocol: Radioligand binding, adrenergic α1B ([3H]Prazosin)
run.conditions: 0.1 μM compound; read-out: Percentage inhibition of ligand binding, Adrenergic α1B
Threshold check on inhibition at 0.1 µM: at or above 30% gives yes (1), strictly below gives no (0).

Decide: inhibition at 0.1 µM of Cc1ccc2c(c1)c1c(n2C2=C(c3ccc(F)cc3)CCC2)CCN(C)C1 [compound 301] >= 30%?
no (0)

Decide: inhibition at 0.1 µM of C/C(=C\n1c2c(c3cc(C)ccc31)CCN(C)CC2)c1cccnc1 [compound 245] >= 30%?
yes (1)

Decide: inhibition at 0.1 µM of CN1CCc2c(c3cc(C(C)(C)C)ccc3n2CC(O)c2ccncc2)C1 (stereo not drawn) [II-68] >= 30%?
no (0)

Decide: inhibition at 0.1 µM of Cc1ccc2c(c1)c1c(n2C2=C(c3cc4ccccc4s3)CCC2)CCN(C)C1 [compound 305] >= 30%?
no (0)

Decide: inhibition at 0.1 µM of C/C(=C\n1c2c(c3cc(Cl)ccc31)CN(C)CC2)c1ccc(S(C)(=O)=O)cc1 [compound 281] >= 30%?
yes (1)

Decide: inhibition at 0.1 µM of Cc1ccc2c(c1)c1c(n2CCc2cnc3ccccc3c2)CCN(C)C1 [compound 320] >= 30%?
yes (1)

Decide: inhibition at 0.1 µM of C/C(=C/n1c2c(c3cc(C)ccc31)CN(C)CC2)c1cnc(N(C)C)nc1 [compound 279] >= 30%?
yes (1)

Decide: inhibition at 0.1 µM of COc1ccc(/C(C)=C/n2c3c(c4cc(C)ccc42)CCN(C)CC3)cc1 [compound 251] >= 30%?
yes (1)

Decide: inhibition at 0.1 µM of Cc1cc(-c2sccc2C)c2c(c1)c1c(n2CCc2ccc(C)nc2)CCN(C)C1 [compound 327] >= 30%?
no (0)
